# measurement description: ACEA_ER_AUC_viability: ACEA Biosciences xCELLigence Real-Time Cell Analysis on Estrogen Receptor Agonism for Viability (AID 2283782);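 note: continuous compound exposure with impedance area under curve over 80 h; hit means loss of impedance signal meaning reduced cell growth or viability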
Records with an inconclusive call do not appear. Calls of active or inactive are those of the source. Rule for the calls: active = hit-call score of the fitted dose curve at least 0.9, where 1 is the maximum; inconclusive = response in the unintended direction; inactive = score below 0.9.
Assign a class; possible classes are active, inactive

// known answers, use as guide
CC1CCCCC1NC(=O)Nc1ccccc1 (stereo not drawn) = active
ClC1(Cl)C2(Cl)C3(Cl)C4(Cl)C(Cl)(Cl)C5(Cl)C3(Cl)C1(Cl)C5(Cl)C24Cl (stereo not drawn) = inactive
ClCCBr = inactive
C=CC(=O)N(C)C = active
COP(=O)(OC)OC = inactive

Call for entry C=CC#N :
inactive

Please do the same for CC(=O)[O][Hg][c]1ccccc1 as well.
active

Please do the same for CC(C)c1ccc(CO)cc1 as well.
inactive

Please do the same for [O-][Cl+2]([O-])O as well.
inactive

Please do the same for O=P(O)(O)CN(CP(=O)(O)O)CP(=O)(O)O as well.
inactive

Please do the same for N#CCc1ccc(Cl)cc1 as well.
inactive

Please do the same for c1cc[c]([Hg][c]2ccccc2)cc1 as well.
active

Please do the same for ClCc1ccccn1 as well.
active

* * *

# measurement description: ATG_EGR_CIS: Attagene CIS-FACTORIAL HepG2 Assay for human Early Growth Response 1 (EGR1) (AID 2282938)
# conditions used: HepG2 Attagene CIS-FACTORIAL EGR reporter mRNA; actives raise or lower the signal
Calls of active or inactive are those of the source. How the source made its calls: active means hit-call score of the fitted dose curve at least 0.9, where 1 is the maximum; inactive means score below 0.9.
Assign a class; possible classes are T = active, F = inactive

// known answers, use as guide
O=CC=O = F
CCCCCCCCSC(=O)Oc1cc(Cl)nnc1-c1ccccc1 = F
CC(=O)c1cc(C(C)(C)C)cc2c1CCC2(C)C = T

Call for entry CCCCCCCCC(=O)NCc1ccc(O)c(OC)c1 :
F

Please do the same for C=CCc1ccc(OC)cc1 as well.
F

Please do the same for CCOP(=S)(OCC)Oc1ccc(S(C)=O)cc1 (stereo not drawn) as well.
F

Please do the same for O=C(CCl)CCl as well.
T

Please do the same for O=C(Cl)c1ccc(Cl)cc1 as well.
F

* * *

Reported AC50 values for a set of compounds
# system: chicken Estrogen Receptor (ESR1), ESR1 (gene 396099)
# measurement description: ATG_chERa_XSP1: Attagene TRANS-FACTORIAL Multi-Species (XSP1) HepG2 Assay for chicken Estrogen Receptor (ESR1) (AID 2283779)
Inconclusive results are not listed. Activity calls are given as the source filed them. Rule for the calls: active = hit-call score of the fitted dose curve at least 0.9, where 1 is the maximum; inconclusive = response in the unintended direction; inactive = score below 0.9.

Example entries begin here.
O=C1C2(Cl)C3(Cl)C4(Cl)C(Cl)(Cl)C5(Cl)C3(Cl)C1(Cl)C5(Cl)C24Cl (centres undefined) = 0.0284 µM (active)
CC(C)(C)c1cc(O)ccc1O = 8.92 µM (active)

# next compound below
Query the reported AC50 for chicken Estrogen Receptor (ESR1), ESR1 (gene 396099); item: CC12CC1(C)C(=O)N(c1cc(Cl)cc(Cl)c1)C2=O (centres undefined)
100 µM (active)

* * *

# measurement description: APR_HepG2_StressKinase_24hr: Apredica 24-hour HepG2 Assay for Stress Kinase (AID 2282922)
# conditions used: HepG2 stress kinase (phospho-c-Jun) imaging, actives raise or lower the signal
The source made the active and inactive calls. Rule for the calls: active = hit-call score of the fitted dose curve at least 0.9, where 1 is the maximum; inactive = score below 0.9.
property measured: AC50

CCCCCCCCc1ccc(O)cc1 = inactive
CC(C)(OO)c1ccccc1 = inactive
NC(=O)O = 4.39 µM (active)
O=C(O)C(F)(F)C(F)(F)C(F)(F)C(F)(F)C(F)(F)C(F)(F)F = inactive
